Assay: Inhibition of prostanoid FP receptor
ATTRIBUTE MEASURED: IC50

Example cases with answers are listed next.
> print(dat)
                                        mol  observed.measurement
1  O=C(O)CN1C(=O)[C@@]2(CC(=O)N(Cc3ccccc3F)C2=O)c2cc(Cl)ccc21               > 30 µM
2  O=C(O)CN1C(=O)[C@@]2(CC(=O)N(Cc3cc(Cl)ccc3F)C2=O)c2cc(Cl)ccc21               > 30 µM

Now take the following compound into account.
// recorded IC50 for "O=C(O)CN1C(=O)[C@@]2(CC(=O)N(Cc3cccc(Cl)c3)C2=O)c2cc(Cl)ccc21" : > 30 µM

----------
Target: Prostaglandin D2 receptor 2 (Homo sapiens)
Sequence (Q9Y5Y4 whole entry): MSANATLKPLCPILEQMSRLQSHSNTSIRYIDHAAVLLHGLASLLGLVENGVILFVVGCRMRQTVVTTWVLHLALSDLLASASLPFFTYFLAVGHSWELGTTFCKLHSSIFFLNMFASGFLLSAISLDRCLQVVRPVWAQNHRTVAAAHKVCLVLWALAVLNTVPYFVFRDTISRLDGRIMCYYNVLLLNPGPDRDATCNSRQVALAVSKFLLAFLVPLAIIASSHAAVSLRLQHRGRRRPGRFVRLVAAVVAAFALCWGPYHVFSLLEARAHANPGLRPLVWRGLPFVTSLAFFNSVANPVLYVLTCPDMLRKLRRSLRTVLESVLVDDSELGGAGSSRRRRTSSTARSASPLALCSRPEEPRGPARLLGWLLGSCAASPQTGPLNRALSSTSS
Assay: Antagonist activity at human CRTH2 receptor expressed in CHO cell membrane by [35S]GTP-gamma-S binding assay
pIC50: −log10 of the molar value.
ATTRIBUTE MEASURED: pIC50

> print(dat)
                                   molecule                               measured.on  attribute.measured  observed.measurement
1  Cc1noc(-c2ccccc2)c1CN1C(=O)CC2(C1=O)C(=O)N(CC(=O)O)c1ccc(Cl)cc12 (centres undefined)  Prostaglandin D2 receptor 2 (Homo sapiens)               pIC50                  7.64
2  O=C(O)CN1C(=O)C2(CC(=O)N(Cc3cccc(Cl)c3)C2=O)c2cc(Cl)ccc21 (centres undefined)  Prostaglandin D2 receptor 2 (Homo sapiens)               pIC50                  6.91
3  O=C(O)CN1C(=O)C2(CC(=O)N(Cc3ccccc3)C2=O)c2cc(Cl)ccc21 (centres undefined)  Prostaglandin D2 receptor 2 (Homo sapiens)               pIC50                  6.38

1 = Cc1noc(-c2ccccc2)c1CN1CC2(CC1=O)C(=O)N(CC(=O)O)c1ccc(Cl)cc12 (centres undefined)
2 = O=C(O)CN1C(=O)C2(CC(=O)N(Cc3cc(Cl)cc(Cl)c3)C2=O)c2cc(Cl)ccc21 (centres undefined)
3 = O=C(O)CN1C(=O)C2(CC(=O)N(Cc3ccc(F)cc3)C2=O)c2cc(Cl)ccc21 (centres undefined)
4 = O=C(O)CN1C(=O)C2(CC(=O)N(Cc3csc(-c4cccc(Cl)c4)n3)C2=O)c2cc(Cl)ccc21 (centres undefined)
Sort (4 molecules) by pIC50: min first. Give your ranking as a list of the labels in the requested order.
3, 2, 4, 1

P = Cc1onc(-c2ccccc2)c1CN1C(=O)CC2(C1=O)C(=O)N(CC(=O)O)c1ccc(Cl)cc12 (centres undefined)
Q = Cc1noc(C)c1CN1C(=O)CC2(C1=O)C(=O)N(CC(=O)O)c1ccc(Cl)cc12 (centres undefined)
// compare measured pIC50, left P , right Q , return larger Your answer should be the label attached to the chosen record.
P
